Target: ERR1 (also known as ERR-α or ERR-1) (Homo sapiens, UniProt P11474)
Sequence (P11474 193-421 limits assumed): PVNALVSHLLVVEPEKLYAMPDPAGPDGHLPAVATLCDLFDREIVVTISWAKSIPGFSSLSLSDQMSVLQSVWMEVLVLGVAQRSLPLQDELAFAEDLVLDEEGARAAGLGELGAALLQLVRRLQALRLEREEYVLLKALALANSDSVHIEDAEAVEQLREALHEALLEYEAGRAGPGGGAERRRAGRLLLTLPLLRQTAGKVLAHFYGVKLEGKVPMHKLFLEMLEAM
Test: TR-FRET assay (disruption of co-activator peptide binding)
Conditions: 6His-tagged ERR1LBD, GST-hSRC2 co-activator peptide; average of 3 independent experiments
Description: Time-Resolved Fluorescence Resonance Energy Transfer (TR-FRET) experiments were performed to examine the functional response of ERR1 (also known as ERR-α or ERR-1) ligands. The TR-FRET assay described herein relied on the conformation of ERR1 for binding to a co-activator peptide: when a test compound binds to ERR1 and alters its conformation, it can disrupt the binding of the co-activator peptide. […]
pEC50: −log10 of the molar value.
Here, each record is paired with measured pEC50 data.
Measure Name: pEC50

1. CN(C1=NC(=O)/C(=C/c2ccc3c(cnn3Cc3ccc(Cl)cc3C(F)(F)F)c2)S1)[C@@H](CO)C(=O)O | 7.64
2. CCOC(=O)N1CCC(N(C)C2=NC(=O)/C(=C/c3ccc4c(cnn4Cc4ccc(Cl)cc4C(F)(F)F)c3)S2)CC1 | 7.16
3. CN(C)CCN(C)C1=NC(=O)/C(=C/c2ccc3c(cnn3Cc3ccc(Cl)cc3C(F)(F)F)c2)S1 | 8.29
4. COc1ccc(Cn2ncc3cc(/C=C4\SC(N(C)CC(O)CO)=NC4=O)ccc32)c(C(F)(F)F)c1 (stereo not shown) | 8.44

----------
Overview of recorded pEC50 for various compounds
Target: ERR1 (also known as ERR-α or ERR-1) (Homo sapiens)
Sequence (P11474 193-421 limits assumed): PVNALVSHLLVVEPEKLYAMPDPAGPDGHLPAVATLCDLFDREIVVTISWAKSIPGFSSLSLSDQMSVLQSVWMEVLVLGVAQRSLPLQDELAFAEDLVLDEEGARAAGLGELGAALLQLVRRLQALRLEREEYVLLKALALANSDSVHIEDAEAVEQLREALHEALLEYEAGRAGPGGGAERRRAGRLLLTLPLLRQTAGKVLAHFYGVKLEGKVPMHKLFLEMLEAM
Experiment: TR-FRET assay (disruption of co-activator peptide binding)
Conditions: 6His-tagged ERR1LBD, GST-hSRC2 co-activator peptide; average of 3 independent experiments
pEC50: −log10 of the molar value.
Measure Name: pEC50

1) CN1CCC(N(C)C2=NC(=O)/C(=C/c3ccc4c(cnn4Cc4ccc(Cl)cc4C(F)(F)F)c3)S2)C1 (stereo not shown) | 7.74
2) CN(CCC#N)C1=NC(=O)/C(=C/c2ccc3c(cnn3Cc3ccc(Cl)cc3C(F)(F)F)c2)S1 | 7.59
3) CN(C)C1=NC(=O)/C(=C/c2ccc3c(cnn3Cc3ccc(C(F)(F)F)cc3C(F)(F)F)c2)S1 | 7.92
4) COCCN(CCOC)C1=NC(=O)/C(=C/c2ccc3c(cnn3Cc3ccc(OC)cc3C(F)(F)F)c2)S1 | 8.39
5) CN(C1=NC(=O)/C(=C/c2ccc3c(cnn3Cc3ccc(C(F)(F)F)cc3C(F)(F)F)c2)S1)C1CCN(CC(N)=O)CC1 | 7.89
6) CN1CCC(N(C)C2=NC(=O)/C(=C/c3ccc4c(cnn4Cc4ccc(C(F)(F)F)cc4C(F)(F)F)c3)S2)CC1 | 7.74
7) CN(CC1(CO)CC1)C1=NC(=O)/C(=C/c2ccc3c(cnn3Cc3ccc(Cl)cc3C(F)(F)F)c2)S1 | 7.68
